assayed.target: T1, murine CD300LB on wild type mouse bone marrow macrophages (mouse, UniProt Q3U497 18-209)
T1 construct: Endogenous receptor on primary cells; also called mCD300LB; Wt BMM
T1 sequence: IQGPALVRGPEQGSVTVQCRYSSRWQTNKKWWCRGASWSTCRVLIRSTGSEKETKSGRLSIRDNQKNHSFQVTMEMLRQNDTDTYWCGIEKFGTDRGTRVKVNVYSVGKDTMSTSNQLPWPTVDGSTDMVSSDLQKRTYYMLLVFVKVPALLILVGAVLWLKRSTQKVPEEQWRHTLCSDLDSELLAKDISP
measurement.notes: flow cytometry, wild type mouse bone marrow macrophages, 10 ug/mL, isotype subtracted
Entries and their gMFI
readout.name: gMFI (gMFI)

[[record]]
binder = "anti-CD300LB antibody CD-12 (antibody, V domains shown) VH: QIQLVQSGPELKKPGETVKISCKASGYTFTDYSMHWVRQAPGKGLKWMAWINTETGEATHADDFKGRFDFSLDTSASTAYLQIKNLKNEDTGIYFCVCYGSSYGMDYWGQGTSVTVSS VL: DIVLTQSPASLPVSLGQRATISCRASKSVRTSGASYMHWYQQKPGQPPKLLIYLASNLKSGVPTRFSGSGSGTDFTLNIHPVEEEDAATYYCQHNREVPPTFGGGTKLEIK"
readout_name = "gMFI"
value_measured = 413

[[record]]
binder = "anti-CD300LB antibody CD-17 (antibody, V domains shown) VH: QIQLVQSGPELKKPGETVKISCKASGYTLTDYSMHWVKQAPGKGLKWMGWINTETGEPRYGDDFKGRFAFSLETSASSAYLQINNLKNDDTATYFCATYGRSYGMDFWGQGTSVTVSS VL: DIVLTQSPASLAVSLGQRATISCRASKSVSPSGHSYMHWYQQKPGQPPKLLIYLASNLKSGVPARFSGSGSGTDFTLNIHPVEEGDAATYYCQHNRELPPTFGGGSKLEIK"
readout_name = "gMFI"
value_measured = 1230

